target: human PTH1 receptor (Homo sapiens, UniProt Q03431)
Sequence (Q03431 27-593): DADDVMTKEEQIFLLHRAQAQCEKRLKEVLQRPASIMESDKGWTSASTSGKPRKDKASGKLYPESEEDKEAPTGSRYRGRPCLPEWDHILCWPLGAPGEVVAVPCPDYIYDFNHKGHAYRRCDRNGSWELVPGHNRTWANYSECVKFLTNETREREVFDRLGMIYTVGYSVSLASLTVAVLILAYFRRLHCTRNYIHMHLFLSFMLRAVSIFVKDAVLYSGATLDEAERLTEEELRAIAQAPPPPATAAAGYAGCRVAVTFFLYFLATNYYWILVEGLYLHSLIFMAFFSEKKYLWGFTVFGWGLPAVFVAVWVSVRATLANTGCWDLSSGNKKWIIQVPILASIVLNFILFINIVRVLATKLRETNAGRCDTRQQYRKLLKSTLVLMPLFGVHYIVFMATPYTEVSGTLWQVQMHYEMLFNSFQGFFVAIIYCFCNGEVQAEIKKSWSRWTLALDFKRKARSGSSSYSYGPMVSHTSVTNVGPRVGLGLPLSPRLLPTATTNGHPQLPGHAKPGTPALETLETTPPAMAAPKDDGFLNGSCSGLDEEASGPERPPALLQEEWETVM
assay_details: In vitro cAMP signal activity in HKRK-B7 cells (LLC-PK1 cells overexpressing the human PTH1 receptor)
Assay type: cell-based
details: HKRK-B7 cells; compound at 1×10^−3 M; cAMP produced as percentage of that produced by hPTH(1-34) at 100 nM
reported_endpoint: cAMP production activity (%)
Report the value in % with no unit label.

Examples from the recorded data:
>>> endpoint_value("CC(=O)Nc1ccc(CCS(=O)(=O)N2CCC3(CC2)N=C(C2CCC(COC(C)C)CC2)NC3=O)c(C)c1 (stereo not shown) [Compound 913]")
81
>>> endpoint_value("[2H]C([2H])([2H])N(C(N)=O)c1cc(C)c(CCS(=O)(=O)N2CCC3(CC2)N=C(c2ccc(F)c(C(F)(F)F)c2)NC3=O)c(C)c1 [Compound 1391]")
116
>>> endpoint_value("CC(=O)N(C)c1cccc(/C=C/S(=O)(=O)N2CCC3(CC2)N=C(c2cccc(OC(F)(F)F)c2)NC3=O)c1C [Compound 236]")
40
>>> endpoint_value("Cc1cc(OC[C@H](O)CO)cc(C)c1/C=C/S(=O)(=O)N1CCC2(CC1)N=C(C1CCCCC1)NC2=O [Compound 206]")
70

Exercise: Look up and state reported cAMP production activity (%) for O=C(Nc1ccncc1)c1cccc(CCS(=O)(=O)N2CCC3(CC2)N=C(C2CCCCC2)NC3=O)c1 [Compound 422]
Key: 14

Exercise: Look up and state reported cAMP production activity (%) for Cc1cc(N2C(=O)CNC2=O)cc(C)c1/C=C/S(=O)(=O)N1CCC2(CC1)N=C(c1ccc(F)c(C(F)(F)F)c1)NC2=O [Compound 636]
Key: 88

Exercise: Look up and state reported cAMP production activity (%) for Cc1cc(C(=O)N(C)C)ccc1CCS(=O)(=O)N1CCC2(CC1)N=C(c1ccc(F)cc1Cl)NC2=O [Compound 90]
Key: 88

---

target: human PTH1 receptor (Homo sapiens)
assay_details: In vitro cAMP signal activity in HKRK-B7 cells (LLC-PK1 cells overexpressing the human PTH1 receptor)
Format: cell-based
details: HKRK-B7 cells; compound at 1×10^−3 M; cAMP produced as percentage of that produced by hPTH(1-34) at 100 nM
reported_endpoint: cAMP production activity (%)
Report the value in % with no unit label.

>>> endpoint_value("Cc1cc(N2C(=O)NC(C)(C)C2=O)cc(C)c1/C=C/S(=O)(=O)N1CCC2(CC1)N=C(c1cccc(OC(F)(F)F)c1)NC2=O")
46
>>> endpoint_value("[2H]C([2H])([2H])C([2H])([2H])Oc1ccc(C2=NC3(CCN(S(=O)(=O)/C=C/c4c(C)cc(C(=O)N5CCC(O)(CF)CC5)cc4C)CC3)C(=O)N2)cc1C(F)(F)F")
81
>>> endpoint_value("Cc1cc(OC[C@H](O)CO)cc(C)c1/C=C/S(=O)(=O)N1CCC2(CC1)N=C(c1ccc(F)c(C(F)(F)F)c1)NC2=O")
75
>>> endpoint_value("O=C(c1ccc2ncccc2c1)N1CCCC(C2=NC3(CCN(S(=O)(=O)CCc4cccc5ccccc45)CC3)C(=O)N2)C1 (stereo not shown)")
14
>>> endpoint_value("Cc1cc(OCCC(O)CO)ccc1-c1ccc(S(=O)(=O)N2CCC3(CC2)N=C(c2ccc(F)c(C(F)(F)F)c2)NC3=O)s1 (stereo not shown)")
62

Exercise: Look up and state reported cAMP production activity (%) for C=CCCOc1cc(C2=NC3(CCN(S(=O)(=O)CCc4ccc(C(=O)N(C)CCOCC=C)cc4C)CC3)C(=O)N2)cc(C(F)(F)F)c1
Key: 70

Exercise: Look up and state reported cAMP production activity (%) for Cc1cc(C(=O)N(C)CCO)ccc1/C=C/S(=O)(=O)N1CCC2(CC1)N=C(c1cccc(C(F)(F)F)c1)NC2=O
Key: 84

Exercise: Look up and state reported cAMP production activity (%) for O=C1NC(C2CCCCC2)=NC12CCN(S(=O)(=O)CCCc1cccc(C(F)(F)F)c1)CC2
Key: 26

Exercise: Look up and state reported cAMP production activity (%) for CC(=O)Nc1ccc(CCS(=O)(=O)N2CCC3(CC2)N=C(c2cccc(C)c2)NC3=O)c(C)c1
Key: 129

Exercise: Look up and state reported cAMP production activity (%) for O=C1NC(C2CCCCC2)=NC12CCN(S(=O)(=O)/C=C/c1cccc(F)c1F)CC2
Key: 37
